Assay: in vitro
Details: dog
OBSERVABLE: CC50 at 24 h (µM)
Give a bare numeral; the unit µM is implied.

Which CC50 at 24 h reading was recorded for the compound C=C[C@@](C)(/C=C/c1ccc(O)cc1)CCC=C(C)C ?
46.2

---

Overview of reported CC50 across a group of molecules:
Test: in vitro
Settings: dog
Record the result as number plus unit.

Reference set (4 entries):
C[C@H](Cc1ccc(O)c(O)c1)[C@@H](C)Cc1ccc(O)c(O)c1 [Masoprocol] :: 84.9 µM
CC[C@H](c1ccc(O)cc1)[C@@H](CC)c1ccc(O)cc1 [Hexestrol] :: 46.9 µM
CC/C(=C(/CC)c1ccc(O)cc1)c1ccc(O)cc1 [Diethylstilbestrol] :: 9.81 µM
C/C=C(/C(=C/C)c1ccc(O)cc1)c1ccc(O)cc1 [Dienestrol] :: 32.6 µM

Lab note: next molecule to report on.
Which CC50 reading was recorded for the molecule Oc1ccc(/C=C/c2cc(O)cc(O)c2)cc1 [Resveratrol] ?
52 µM
